What RP-LC retention time was measured for each of the following?
test: gradient 5% acetonitrile 3 min, to 50% in 2 min, to 85% in 15 min, held 3 min, 100 µL/min; conditions: column: Zorbax Extend-C18 2.1 x 50 mm; eluents: water / acetonitrile, 0.1% formic acid
Answers are plain numbers, in s.

compound=COC(=O)c1ccc2c(=O)n(-c3ccc(Cl)cc3)c(N3CCSC3)nc2c1 readout_type="RP-LC retention time" assay_result=1110
compound=O=C(Oc1ccc2oc(=O)sc2c1)c1cccc(Cl)c1 readout_type="RP-LC retention time" assay_result=1090
compound=Cc1ccc(Cn2nc3ccc(S(=O)(=O)N4CCc5ccccc5C4)cn3c2=O)cc1 readout_type="RP-LC retention time" assay_result=1050
compound=O=C(NC1CCCCC1)c1ccc2ncnc(N3CCCC3)c2c1 readout_type="RP-LC retention time" assay_result=636
compound=COCCC(=O)N1CCCN(C2=NS(=O)(=O)C(c3ccc(C)cc3)=C2C)CC1 readout_type="RP-LC retention time" assay_result=720

Batch lookup, RP-LC retention time per entry.
1. O=C(Nc1ccc(F)cc1)C1CCN(S(=O)(=O)c2cc(C(=O)N3CCOCC3)cs2)CC1
2. Cn1nnc2ccc(-c3noc(-c4ccccc4)n3)cc21
3. Cc1ccc(NC(=O)N2CCc3cn(C)c4cccc(c34)C2)c(C)c1
4. O=C(NCCN1CCCc2ccccc21)C1CCCN(c2ncnc3c2nc2n3CCCCC2)C1 (centres undefined)

Reply:
1: 755; 2: 985; 3: 980; 4: 877

---

Please provide measured RP-LC retention time for the entries that follow.
test: gradient 5% acetonitrile 3 min, to 50% in 2 min, to 85% in 15 min, held 3 min, 100 µL/min; details: column: Zorbax Extend-C18 2.1 x 50 mm; eluents: water / acetonitrile, 0.1% formic acid
One number for each entry, in s.

compound=CC(C)CCn1c(CCCC(=O)Nc2ccncc2)nc2cccnc21 assay_result=601

Give RP-LC retention time for each listed item.
1. CCn1ccc2c(cc(C(=O)Nc3c(C)cccc3C)n2C)c1=O
2. COc1ccc(NC(=O)Cn2c(C)cc(-c3nnc(-c4ccc(F)cc4)o3)c2C)cc1
3. Cc1ccc(-c2nc(C3CCN(S(=O)(=O)c4cccc(F)c4)CC3)no2)cc1
4. COc1cc(NC(=O)CSC2CCc3ccccc3NC2=O)cc(OC)c1 (stereo not given)
5. O=C(N[C@H]1C[C@@H]2C[C@H]1N(S(=O)(=O)c1cc(F)cc(F)c1)C2)c1cccs1
6. CCN1CCN(Cc2nc(-c3ccc(N4CCCC(C)C4)nc3)no2)CC1 (stereo not given)

Reply:
721
952
1160
796
720
610

List reported RP-LC retention time for each of these compounds:
1. O=C(Cn1nc(N2CCOCC2)c2ccccc2c1=O)Nc1ccc(F)c(F)c1
2. O=C1CCCc2cc(S(=O)(=O)NCC3CCN(Cc4ccccc4F)CC3)ccc2N1
3. CCCn1cc(CCNS(=O)(=O)c2ccc3c(c2)CCCC3)c2cccnc21
4. O=C(Nc1ccccc1)Oc1ccc[nH]c1=O
5. O=C1OC(Nc2nc(-c3cccc(Br)c3)cs2)c2ccccc21 (stereo not given)
6. Cc1sc(-c2cc(C(F)(F)F)[nH]n2)cc1S(=O)(=O)N1CCCCCC1

Reply:
1. 796
2. 596
3. 1030
4. 650
5. 862
6. 1110

Batch request: RP-LC retention time per item, same order as input.
1. O=C(Nc1ccc(F)cc1F)C1(CCO)CCN(c2ncccn2)C1 (stereo not given)
2. CCOc1nccnc1N1CCC(N(C)C(=O)c2ccsc2)C1 (stereo not given)

Reply:
1. 611
2. 724

---

Assign RP-LC retention time to each entry below.
experiment: gradient 5% acetonitrile 3 min, to 50% in 2 min, to 85% in 15 min, held 3 min, 100 µL/min; conditions: column: Zorbax Extend-C18 2.1 x 50 mm; eluents: water / acetonitrile, 0.1% formic acid
Numbers only, in s.

Some solved entries appear below for comparison.
compound=CC(C)CN1C(=O)CCc2cc(NS(=O)(=O)c3ccccc3F)ccc21 readout_type="RP-LC retention time" unit_info=s assay_result=845
compound=Cc1noc(CNC(=O)C2CCN(C(=O)Cc3cn(C)c4ccccc34)CC2)n1 readout_type="RP-LC retention time" unit_info=s assay_result=656
compound="Cc1cccc(N2C(=O)c3cccnc3C2CC(=O)N2CCN(c3ccccn3)CC2)c1 (stereo not given)" readout_type="RP-LC retention time" unit_info=s assay_result=562

Please supply RP-LC retention time for each of the following items, keeping them in order.
1. CN(CC(=O)N1CCN(c2ccc(Cl)cc2)CC1)S(=O)(=O)c1c[nH]c(C(=O)N2CCCC2)c1
2. COc1cc(-c2nc3cccc(C)n3c2Nc2ccc3c(c2)OCCO3)ccc1O

Reply:
1. 837
2. 634

---

test: gradient 5% acetonitrile 3 min, to 50% in 2 min, to 85% in 15 min, held 3 min, 100 µL/min; conditions: column: Zorbax Extend-C18 2.1 x 50 mm; eluents: water / acetonitrile, 0.1% formic acid
READOUT_TYPE: RP-LC retention time (s)
Answers are plain numbers, in s.

compound_smiles=O=C(N[C@H]1C[C@@H]2C[C@H]1CN2C(=O)Nc1ccc2c(c1)OCO2)c1cccs1 assay_result=623

Required: RP-LC retention time, one value per compound below.
1. COc1ccc(Br)c(C(=O)N2CC(c3nc(-c4cccc(Cl)c4)no3)C2)c1
2. Cc1sc2ccn(Cc3ccc(F)cc3)c(=O)c2c1C(=O)N1CCOCC1
3. COc1ccc(NC(=O)C2CCN(c3nc4ccc(-c5cncnc5)nc4s3)CC2)cc1
4. O=C1NCCCCCCN(C(=O)Nc2ccc3c(c2)OCCO3)[C@H]2CCCC[C@@H]12

Reply:
1: 1000; 2: 713; 3: 860; 4: 808

---

test: gradient 5% acetonitrile 3 min, to 50% in 2 min, to 85% in 15 min, held 3 min, 100 µL/min; conditions: column: Zorbax Extend-C18 2.1 x 50 mm; eluents: water / acetonitrile, 0.1% formic acid
Returns the class for an entry based on its RP-LC retention time. Class ranges: low (below 600 s), mid (600 s to below 700 s), high (700 s or more)

Recorded results for 2 compounds are shown here.
compound_smiles=Cc1noc(C)c1CCC(=O)N1CCN(c2ncnc3c2CCC3)CC1 qualitative_label=low
compound_smiles=Cc1ccc(-c2noc(CN3C(=O)COc4ccccc43)n2)cc1C qualitative_label=high

Query: Field: class (RP-LC retention time) — entry: Cc1oc2ncnc(N3CCCCC3)c2c1C(=O)N(CCN(C)C)Cc1ccccc1
Reply: low

Query: Lab log: COc1cccc(S(=O)(=O)N2CCN(c3cnn4c(C)nnc4c3)CC2)c1 — assign RP-LC retention time category
Reply: mid

Query: Bin this entry: CCn1cc(S(=O)(=O)N2CC(Cn3c(C)cnc3-c3ccncc3)C2)cn1
Reply: low

Query: Dear colleague, I would appreciate it if you could identify the bin for COc1ccc(C(=O)N2C[C@@H]3C[C@H]2C[C@@H]3NC(=O)c2ccccc2)cc1OC and reply at your convenience.
Reply: mid

Query: Which category fits this record: Cc1ccc(S(=O)(=O)N2CCN(S(=O)(=O)N3CCCCC3)CC2)cc1
Reply: high

---

assay: gradient 5% acetonitrile 3 min, to 50% in 2 min, to 85% in 15 min, held 3 min, 100 µL/min; settings: column: Zorbax Extend-C18 2.1 x 50 mm; eluents: water / acetonitrile, 0.1% formic acid
So I've got a bunch of compounds here, and I need their RP-LC retention time values.
Answers are plain numbers, in s.

Here is how some compounds turned out for RP-LC retention time.
compound=CC(C)c1nccn1C1CN(C(=O)COc2ccccc2)C1 unit_info=s assay_result=596
compound=Cc1ccc(-c2csc(NC(=O)CCCc3nc(-c4ccc(Cl)cc4)no3)n2)cc1 unit_info=s assay_result=1240
compound=Cc1cc(NC(=O)c2c(O)c3cccnc3n(-c3ccccc3)c2=O)ccc1F unit_info=s assay_result=1160

Batch lookup, RP-LC retention time per entry.
1. COc1cc(NC(C)=O)c2ncccc2c1Br
2. COc1ccc(OCC(=O)N2CCC(C(=O)NCCc3csc(-c4cccs4)n3)CC2)cc1

Reply:
1: 960; 2: 777

Your task in this section: give RP-LC retention time for each listed record.
1. CCCCC(=O)NC1=C(C(=O)OC)SCC1
2. CSc1ccc(CNS(=O)(=O)c2cc3c(s2)CCN(C(=O)C2CC2)C3)cc1
3. Cc1cc2ccccc2n2c(SCC(=O)NCc3ccco3)nnc12

Reply:
1: 905; 2: 872; 3: 663

// each listed compound needs a value for RP-LC retention time
1. CCC1Oc2ccc(S(=O)(=O)N3CCC(C(=O)Nc4ccccc4Cl)CC3)cc2NC1=O (stereo not drawn)
2. CC(C)CCNC(=O)C1(C)CCC(=O)N1CCc1c[nH]c2ccccc12 (stereo not drawn)
3. CCC(=O)N1CCc2cc(C(=O)N3CCN(Cc4ccc5c(c4)OCO5)CC3)ccc21

Reply:
907
786
611

Count: 8. Required value per item: RP-LC retention time.
1. COc1ccccc1NC(=O)N1CCC(CNS(=O)(=O)Cc2cccc(F)c2)CC1
2. CC(=O)c1ccc(N2CCN(C(=O)CN3C(=O)C(C)(C)c4cc(C)ccc43)CC2)cc1
3. CCCC(=O)Nc1ccc(-n2cnc(C(=O)N3CCN(c4cccc(C)c4C)CC3)c2)nc1
4. Cc1ccc(-c2noc(C3CCCN3S(=O)(=O)c3ccc(C)c(Cl)c3)n2)cc1 (stereo not drawn)
5. Cn1nc(C(=O)N2CCCC(C(=O)Nc3ccccc3)C2)c2c1CCN(C(=O)CCc1ccccc1)C2 (stereo not drawn)
6. Cc1ccc(CN2CCN(C3CCN(C(=O)Nc4ccc5c(c4)OCCO5)CC3)C(=O)C2=O)cc1
7. Cc1cc(N(C)C)n2nc(CN3CCC(Cc4ccccc4)CC3)nc2n1
8. CCCn1c(C)cnc1C1CN(S(=O)(=O)c2ccccc2)C1

Reply:
[787, 855, 929, 1290, 800, 715, 637, 565]

// batch mode: one RP-LC retention time value per listed entry
1. O=C(CC1CCCCN1S(=O)(=O)c1ccc(Cl)cc1)NCc1cccnc1 (stereo not drawn)
2. Cc1ccc(CC(=O)NC2CCN(c3cc(C)cc(C)c3)C2=O)cc1 (stereo not drawn)
3. COc1cc(=O)n2c(c1C(=O)Nc1ccc(Br)cc1F)CCCC2
4. Cc1ccc(N2CC(c3nc(-c4ccc5c(c4)ncn5C)no3)CC2=O)cc1 (stereo not drawn)

Reply:
1. 568
2. 893
3. 777
4. 664

Dear reader, for each entry below, please note its RP-LC retention time.
1. Cc1ccc(NC(=O)NC2CCN(C(=O)N3C[C@H]4C[C@H](C3)[C@H]3CCCC(=O)N3C4)CC2)cc1C
2. CCOC(=O)Cn1nc2ccc(S(=O)(=O)N3CCSCC3)cn2c1=O
3. Cc1ccc(N2C(=O)C3N=NN(c4ccccc4)C3C2=O)cc1C (stereo not drawn)
4. O=C(CSc1nnc(C2COc3ccccc3O2)o1)NCc1ccco1 (stereo not drawn)
5. COCC(C)(O)CNC(=O)C(=O)Nc1ccccc1C#N (stereo not drawn)
6. O=C(Cn1c(=O)oc2ccccc21)N1CCC(Oc2nc3c(Cl)cccc3s2)CC1
7. O=C(NCC1CCCO1)c1cn(-c2cc(-c3nc(C4CC4)no3)ccn2)cn1 (stereo not drawn)
8. O=C(CCc1nc2ccccc2n(CC(=O)Nc2ccc3c(c2)OCO3)c1=O)NCc1ccccc1

Reply:
[702, 765, 1010, 648, 629, 979, 762, 797]

Give RP-LC retention time for each listed item.
1. CCCCn1cc(S(=O)(=O)Nc2ccc(F)cc2)c2cccnc21
2. Cc1ncsc1CN1CCc2nn(Cc3ccccc3)c(=O)n2CC1
3. CC(C)n1c(CN2CCOCC2)nc2cc(NC(=O)c3cccs3)ccc21
4. COc1ccc(-c2nnc3n2N=C(c2ccc([N+](=O)[O-])cc2)CS3)cc1OC
5. COc1ccccc1N1CCN(Cc2nc(-c3ccc(N4CCOCC4)nc3)no2)CC1
6. COC(=O)c1cc(S(=O)(=O)N2CCCC2C(=O)Nc2ccc(Cl)cc2C)cn1C (stereo not drawn)
7. Cc1ccc(S(=O)(=O)N2CCc3c(c(-c4nnc(-c5ccc(F)cc5)o4)nn3C)C2)cc1Cl

Reply:
1: 936; 2: 604; 3: 640; 4: 723; 5: 694; 6: 958; 7: 1040

Values from the METLIN SMRT retention time set (Domingo-Almenara et al. 2019)
